Please provide measured viability for the entries that follow.
- run.description: reversal of MRP1-mediated doxorubicin resistance, pilot screen, H69AR cells, doxorubicin co-treatment (AID 601)
- applied.conditions: H69AR cells, CellTiter-Glo, 72 h; compound alone cytotoxicity; at 10 µM
Answer in %, number only, no unit symbol.

Qu. Param item = "COc1ccc(C(=O)N2CCOCC2)cc1Br" ; retrieve measured viability.
Ans. 101

Qu. viability for "c1ccc(-c2csc(N3CCCCCC3)n2)cc1" ?
Ans. 100

Qu. Name the recorded viability for "COc1ccc(NC(=O)c2oc3ccccc3c2NC(=O)c2ccco2)cc1" .
Ans. 78.4

Qu. Consider the compound COCCOC(=O)C1=C(C)NC(=O)CC1c1cc2c(cc1Br)OCO2 (stereo unspecified) and give its measured viability.
Ans. 97.4

Qu. Which measured viability value corresponds to "CCOc1cc(NC(=O)c2ccco2)c(OCC)cc1NC(=O)COc1ccccc1C" ?
Ans. 7.87

Qu. Quick one: viability for CC(=O)Nc1cccc(NC(=O)C2CCCN2C(=O)Nc2ccc(C)cc2)c1 (stereo unspecified) ?
Ans. 100
